- TEST_TARGET: SOCS-3 (Mus musculus)
- Construct: hexahistidine (pET15b) (N); made in house; host or cells: E. coli BL21 DE3 pLysS
- Sequence (O35718 whole entry): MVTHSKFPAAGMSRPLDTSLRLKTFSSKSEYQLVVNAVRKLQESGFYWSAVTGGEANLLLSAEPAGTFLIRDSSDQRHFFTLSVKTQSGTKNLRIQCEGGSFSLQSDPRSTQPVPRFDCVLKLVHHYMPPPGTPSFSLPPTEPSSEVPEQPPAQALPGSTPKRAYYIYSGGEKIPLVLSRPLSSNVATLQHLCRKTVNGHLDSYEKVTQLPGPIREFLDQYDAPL
- PROTOCOL: Competitive binding assay on the Biosensor: soluble peptide displaces SOCS-3 from immobilized gp130 (750-764) phosphopeptide
- Parameters: species or system murine
- STATED_CONDITIONS: relative to gp130 (750-764) parent phosphopeptide
Square brackets hold non-standard residues; d marks the D form. Peptide text beside a SMILES is read from it. pY = N[C@@H](Cc1ccc(OP(=O)(O)O)cc1)C(=O)O
Kindly supply the reported IC50 analogue/IC50 wild-type values for the records listed here.
Lab note: record the figure alone, no unit after it.

[ask] IC50 analogue/IC50 wild-type lookup needed for CC(=O)N[C@@H](C)C(=O)N[C@@H](CCC(=O)O)C(=O)N[C@@H](Cc1ccc(OP(=O)(O)O)cc1)C(=O)N[C@@H](CO)C(=O)N[C@H](C(=O)N[C@H](C(=O)N[C@H](C(=O)N[C@@H](Cc1c[nH]cn1)C(=O)N[C@@H](CO)C(=O)NCC(N)=O)C(C)C)C(C)C)[C@@H](C)O [AcAE(pY)STVVHSG] (Ac-AE[pY]STVVHSG-NH2) , thanks.
[reply] 5.3

[ask] What would you report for CC(=O)N[C@H](C(=O)N[C@H](C(=O)N[C@@H](CCC(=O)O)C(=O)N[C@@H](Cc1ccc(OP(=O)(O)O)cc1)C(=O)N[C@@H](CO)C(=O)N[C@H](C(=O)N[C@H](C(=O)N[C@H](C(=O)N[C@@H](Cc1c[nH]cn1)C(=O)N[C@@H](CO)C(=O)NCC(N)=O)C(C)C)C(C)C)[C@@H](C)O)C(C)C)[C@@H](C)O ?
[reply] 1.1

[ask] Please answer likewise for CC(C)[C@H](NC(=O)[C@@H](NC(=O)[C@@H](NC(=O)[C@H](CO)NC(=O)[C@H](Cc1ccc(OP(=O)(O)O)cc1)NC(=O)[C@H](CCC(=O)O)NC(=O)[C@@H](NC(=O)[C@@H](NC(=O)[C@H](CO)NC(=O)[C@H](C)NC(=O)[C@@H](NC(=O)[C@@H](N)CO)[C@@H](C)O)[C@@H](C)O)C(C)C)[C@@H](C)O)C(C)C)C(=O)N[C@@H](Cc1c[nH]cn1)C(N)=O [STASTVE(pY)STVVH] (H-STASTVE[pY]STVVH-NH2; N-terminus assumed)
[reply] 0.70

[ask] Please do the same for CC(=O)N[C@@H](CCC(=O)O)C(=O)N[C@@H](Cc1ccc(OP(=O)(O)O)cc1)C(=O)N[C@@H](CO)C(=O)N[C@H](C(=O)N[C@H](C(=O)N[C@H](C(=O)N[C@@H](Cc1c[nH]cn1)C(=O)N[C@@H](CO)C(=O)NCC(N)=O)C(C)C)C(C)C)[C@@H](C)O [AcE(pY)STVVHSG] (Ac-E[pY]STVVHSG-NH2) as well.
[reply] 8.8

[ask] Now give it for CC(C)[C@H](NC(=O)[C@@H](NC(=O)[C@@H](NC(=O)[C@H](CO)NC(=O)[C@H](Cc1ccc(OP(=O)(O)O)cc1)NC(=O)[C@H](CCC(=O)O)NC(=O)[C@@H](NC(=O)[C@@H](NC(=O)[C@H](CO)NC(=O)[C@H](C)NC(=O)[C@@H](NC(=O)[C@@H](N)CO)[C@@H](C)O)[C@@H](C)O)C(C)C)[C@@H](C)O)C(C)C)C(N)=O [STASTVE(pY)STVV] (H-STASTVE[pY]STVV-NH2; N-terminus assumed) too.
[reply] 10

[ask] And CC(=O)N[C@@H](Cc1ccc(OP(=O)(O)O)cc1)C(=O)N[C@@H](CO)C(=O)N[C@H](C(=O)N[C@H](C(=O)N[C@H](C(=O)N[C@@H](Cc1c[nH]cn1)C(=O)N[C@@H](CO)C(=O)NCC(N)=O)C(C)C)C(C)C)[C@@H](C)O [Ac(pY)STVVHSG] (Ac-[pY]STVVHSG-NH2) ?
[reply] 87

[ask] Please answer likewise for CC(C)[C@H](NC(=O)[C@@H](NC(=O)[C@@H](NC(=O)[C@H](C)NC(=O)[C@H](Cc1ccc(OP(=O)(O)O)cc1)NC(=O)[C@H](CCC(=O)O)NC(=O)[C@@H](NC(=O)[C@@H](NC(=O)[C@H](CO)NC(=O)[C@H](C)NC(=O)[C@@H](NC(=O)[C@@H](N)CO)[C@@H](C)O)[C@@H](C)O)C(C)C)[C@@H](C)O)C(C)C)C(=O)N[C@@H](Cc1c[nH]cn1)C(=O)N[C@@H](CO)C(=O)NCC(N)=O [STASTVE(pY)ATVVHSG] (H-STASTVE[pY]ATVVHSG-NH2; N-terminus assumed)
[reply] 0.65

Measured values drawn from patent US7256007B2 for this set.
